Hello, the source for this data is ChEMBL document CHEMBL3621108, in case you need it.

test: Cytotoxicity against human MDA-MB-231 cells assessed as viable cells at 10 uM; format: cell-based; conditions: read-out: Activity
quantity name: viability at 10 µM (%)
Number only, in %; omit the unit.

Identify measured viability at 10 µM associated with "COc1ccc(-c2cnccc2-c2cnc(NC(=O)C(C)C)s2)c(C(F)(F)F)c1" 106

Tell me its viability at 10 µM given "Cc1ccc(-c2cnccc2-c2cnc(NC(=O)C(C)C)s2)c(Cl)c1" as the entry. 131

Identify measured viability at 10 µM corresponding to "CC(C)CNc1ncc(-c2ccncc2-c2ccccc2Cl)s1" 88

* * *

target: LIM domain kinase 1 (Homo sapiens); assay: Inhibition of LIMK1 in human ZR75-1 cells assessed as inhibition of cofilin phosphorylation after 5 hrs; type: cell-based, ZR-75-1
Sequence (P53667 whole entry, the tested form may be a part): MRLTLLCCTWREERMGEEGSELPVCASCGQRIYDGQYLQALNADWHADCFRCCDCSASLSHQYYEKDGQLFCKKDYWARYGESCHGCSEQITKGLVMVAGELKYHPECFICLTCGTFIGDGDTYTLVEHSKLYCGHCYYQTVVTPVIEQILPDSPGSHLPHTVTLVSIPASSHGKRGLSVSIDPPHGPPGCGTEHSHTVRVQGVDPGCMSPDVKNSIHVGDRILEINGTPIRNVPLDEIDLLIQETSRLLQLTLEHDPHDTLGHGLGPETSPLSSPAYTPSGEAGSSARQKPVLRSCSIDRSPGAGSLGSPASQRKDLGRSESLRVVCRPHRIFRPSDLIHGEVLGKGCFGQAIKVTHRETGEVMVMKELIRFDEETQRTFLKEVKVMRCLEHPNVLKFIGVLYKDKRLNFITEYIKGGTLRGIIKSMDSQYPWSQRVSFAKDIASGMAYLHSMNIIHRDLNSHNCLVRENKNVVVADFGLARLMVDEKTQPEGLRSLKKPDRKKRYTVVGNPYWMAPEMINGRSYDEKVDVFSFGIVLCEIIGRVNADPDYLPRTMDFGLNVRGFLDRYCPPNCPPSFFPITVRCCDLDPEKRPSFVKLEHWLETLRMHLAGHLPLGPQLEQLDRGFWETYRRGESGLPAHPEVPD
Would you kindly list IC50 for each of these molecules?

Look up and state reported IC50 for "CC(=O)Nc1ncc(-c2ccncc2-c2ccccc2Cl)s1" 1.4 µM

Output measured IC50 for this item: "CCCNc1ncc(-c2ccncc2-c2ccccc2C)s1" 11.5 µM

Input "Clc1ccccc1-c1cnccc1-c1cnc(Nc2ccccc2)s1" , output reported IC50. 0.6 µM

Annotate the molecule "CCNc1ncc(-c2ccncc2-c2ccccc2Cl)s1" with its measured IC50. 14 µM

Name the recorded IC50 of the item "CCCNc1ncc(-c2ccncc2-c2ccccc2Cl)s1" in your answer. 3.8 µM

Give the value of IC50 reported for the following: "Nc1ncc(-c2ccncc2-c2ccccc2Cl)s1" > 30 µM
